B1: SPDEF (parent)
chain: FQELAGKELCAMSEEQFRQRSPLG

- Variants of: B1
- Experimental protocol: protein stability index of a GFP-peptide fusion (GPS, HEK-293T) (PSI 1-6); higher = more stable;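 further: lentivirally expressed fusions sorted by FACS into six bins by GFP to DsRed ratio, PSI derived from sequencing read proportions per bin multiplied by bin number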
- Condition parameters: c terminus: a fixed tail appended
Item-by-item account of protein stability index
Metric name: protein stability index

Sequence content	Result number
FQELAGKELCAMSHEQFRQRSPLG [E14H]	2.47
FQELAGKELCAMGEEQFRQRSPLG [S13G]	2.57
FQELAGKELCAMSEEQFRQRLPLG [S21L]	2.6
FQELAGKELCAMSEEQFRQRSILG [P22I]	2.42
HQELAGKELCAMSEEQFRQRSPLG [F1H]	4.02
FQELAGKEICAMSEEQFRQRSPLG [L9I]	3.19
FQELAGKELCAMSETQFRQRSPLG [E15T]	2.38
FQELAGKELCAKSEEQFRQRSPLG [M12K]	3.3
FQELAGKILCAMSEEQFRQRSPLG [E8I]	1.53
FQELAGKELCAMSEEQERQRSPLG [F17E]	3.85
FQELAGKELCAMSEEQDRQRSPLG [F17D]	3.85
FQELAGKELCKMSEEQFRQRSPLG [A11K]	2.61
FQELAGKELNAMSEEQFRQRSPLG [C10N]	3.1
FQEAAGKELCAMSEEQFRQRSPLG [L4A]	3.35
FQELAGKELCAMSEEQFRQRNPLG [S21N]	2.6
FQELAGKELCAMSEEQFRQRVPLG [S21V]	2.99
FQELAGKELCAMSEEQFEQRSPLG [R18E]	3.31
FQELAGKELCAMSEEQFRNRSPLG [Q19N]	2.11
FQELAGKELCAMPEEQFRQRSPLG [S13P]	3.18
FNELAGKELCAMSEEQFRQRSPLG [Q2N]	4.11
FQELAGKELCAMSEEQFFQRSPLG [R18F]	2.21
FQEWAGKELCAMSEEQFRQRSPLG [L4W]	2.4
FQELAGKGLCAMSEEQFRQRSPLG [E8G]	1.73
FQELAGKELCAMSEEDFRQRSPLG [Q16D]	3.23
FQELAGKELCAMSEEQFRMRSPLG [Q19M]	2.33
FQELAGKELCAMSEERFRQRSPLG [Q16R]	2.6
FQELAGKELCAQSEEQFRQRSPLG [M12Q]	3.19
FQELAGKELCAMSEEQLRQRSPLG [F17L]	3.14
FQELAGKELCAMSEEQFRQRSGLG [P22G]	2.61
FQELAGKELCAMSEEQFRQRSPLE [G24E]	2.56
VQELAGKELCAMSEEQFRQRSPLG [F1V]	4.27
FQELAGKELCAMSEEQFRQRSRLG [P22R]	2.53
FQELKGKELCAMSEEQFRQRSPLG [A5K]	3.27
FQELAGKENCAMSEEQFRQRSPLG [L9N]	4.37
FQELAGKKLCAMSEEQFRQRSPLG [E8K]	2.32
FQELAGKELCAMSEEQWRQRSPLG [F17W]	2.67
FQELAGKEGCAMSEEQFRQRSPLG [L9G]	4.34
FQELAGKELCAMSNEQFRQRSPLG [E14N]	2.81
FQELAGKELCAMSEEQFRQRSPRG [L23R]	3.24
FQELAGKQLCAMSEEQFRQRSPLG [E8Q]	2.25
FQELAGKELCAMSEEPFRQRSPLG [Q16P]	2.47
FQELAGKYLCAMSEEQFRQRSPLG [E8Y]	1.89
FQELAGKELCAMSEEQFRQYSPLG [R20Y]	2.43
FQYLAGKELCAMSEEQFRQRSPLG [E3Y]	2.69
FQELAGKELCAMSEEQFRQRSPLP [G24P]	2.89
FQELAGKELDAMSEEQFRQRSPLG [C10D]	4.38
